test system: Intraocular Pressure of Rabbit; assay: Intraocular pressure lowering effect in rabbits (eye drop instillation, tonometer); assay type: in vivo, Male Dutch rabbits; details: 4 hr after instillation of 50 μl of 0.5% eye drops into the right eye, mean ± SD (n = 4-5)
PROPERTY_NAME: Intraocular pressure, 4 hr (mmHg)
Form entry: value (mmHg) — number only.

Take a look at these entries with their results.
COc1ccccc1N1CCN(CC(O)COc2cc(C)c(O)c(C)c2)CC1.Cl.Cl (stereo not drawn) = 28.6
COc1ccccc1N1CCN(CC(O)COc2ccc(O)c(C(C)(C)C)c2)CC1.Cl (stereo not drawn) = 28.0
COc1ccc(OC)c(N2CCN(CC(O)COc3ccc(O)cc3)CC2)c1.Cl.Cl (stereo not drawn) = 29.6

Fill blank: measured Intraocular pressure, 4 hr of the compound COc1ccccc1N1CCN(CC(O)COc2cc(C)c(O)c3ccccc23)CC1 (stereo not drawn) is ____. 26.6

Fill blank: measured Intraocular pressure, 4 hr of the compound COc1ccccc1N1CCN(CC(O)COc2cc(C)c(O)c(C)c2C)CC1 (stereo not drawn) is ____. 23.8

----------
tested on: Blood Pressure of SHR Rat; experiment: Effect on blood pressure of SHR rat (oral administration); format: in vivo, male SHR/Izm rats; details: 4 hr after 30 mg/kg orally, mean ± SD (n = 4-5)
PROPERTY_NAME: Blood pressure, 4 hr (mmHg)
Form entry: value (mmHg) — number only.

Take a look at these entries with their results.
COc1ccccc1N1CCN(CC(O)COc2ccc(O)c(C)c2C)CC1.Cl (stereo not drawn) = 241.0
COc1ccccc1N1CCN(CC(O)COc2cc(C)c(O)c(C)c2)CC1.Cl.Cl (stereo not drawn) = 219.5

Now consider a different compound.
Fill blank: measured Blood pressure, 4 hr of the compound COc1ccccc1N1CCN(CC(O)COc2cc(C)c(O)c(C)c2C)CC1 (stereo not drawn) is ____. 192.0

----------
melting point reference

COc1ccccc1N1CCN(CC(O)COc2cc(C)c(O)c(C)c2)CC1.Cl.Cl (stereo not drawn) = 208 to 210 °C (dec.)
COc1ccccc1N1CCN(CC(O)COc2ccc(O)cc2C)CC1.Cl.Cl (stereo not drawn) = 192 to 194 °C (dec.)
COc1ccccc1N1CCN(CC(O)COc2ccc(O)c(C(C)(C)C)c2)CC1.Cl (stereo not drawn) = 170 to 172 °C
COc1ccccc1N1CCN(CC(O)COc2cc(C)c(O)cc2C)CC1.Cl.Cl (stereo not drawn) = 214 to 215 °C (dec.)
COc1ccccc1N1CCN(CC(O)COc2ccc(O)c(C)c2C)CC1.Cl (stereo not drawn) = 228 to 230 °C (dec.)

Fill blank: measured melting point of the compound COc1ccccc1N1CCN(CC(O)COc2ccc(O)c(C)c2)CC1.Cl.Cl (stereo not drawn) is ____. 214 to 216 °C (dec.)

Fill blank: measured melting point of the compound COc1ccc(C)cc1N1CCN(CC(O)COc2ccc(O)cc2)CC1.Cl.Cl (stereo not drawn) is ____. 222 to 224 °C

Fill blank: measured melting point of the compound COc1ccc(N2CCN(CC(O)COc3ccc(O)cc3)CC2)c(OC)c1.Cl.Cl (stereo not drawn) is ____. 213 to 215 °C (dec.)

Fill blank: measured melting point of the compound COc1ccc(OC)c(N2CCN(CC(O)COc3ccc(O)cc3)CC2)c1.Cl.Cl (stereo not drawn) is ____. 205 to 207 °C

Fill blank: measured melting point of the compound COc1ccc(OC)c(N2CCN(CC(O)COc3ccc(O)cc3C)CC2)c1.Cl.Cl (stereo not drawn) is ____. 168 to 170 °C (dec.)

Fill blank: measured melting point of the compound COc1ccccc1N1CCN(CC(O)COc2cc(C)c(O)c(C)c2C)CC1 (stereo not drawn) is ____. 163 to 165 °C

Fill blank: measured melting point of the compound COc1ccccc1N1CCN(C(Oc2cc(C)c(O)c(OC)c2OC)C(C)O)CC1.Cl (stereo not drawn) is ____. 138 to 140 °C
